- TGT: pooled human IgG (human IgG1,2,3 and 4)
QUANTITY_MEASURED: Enzyme Activity Endpoint Assay (purified): Fab′2 (ng/µL)

INSERT INTO measurements (protein, numeric_readout) VALUES
  ('PRT-511 (protein) MITSVWTKGVTPPAKFRKIVDGNIAYYHAPYVANQGWYDITKTFNGKDDLLCGAATAGNMLHWWFDQNKEEIEAYLKKHPEKQKIMFGDQELLDVRKVINTKDSQTNSALFNYFKDKAFPNLSARRLGVMPDLVLDMFINGYYLNVYKTQTTDVNRTYQTKDRRGGIFDAVFTRGDQSKLLTERHDLKNKTLKEISDLIKQELTEGKALGLSHTYANVRINHVINLWGADFDSNGNLEAIYVTDSDSNASIGMKKYFVGVNSAGKVAISAKEIKEDNIGAQVLGLFTLSTGQDIWNQTNLEHHHHHH', 935);

Where these numbers come from: patent US20250027068
